Recorded measurements of half-life, one per entry
TEST_NAME: Half life in mouse liver microsomes
Assay type: ADME, microsome
Output spec: scalar in min, unitless text.

1. Cc1cccc(CSc2nc(N)c3c4c(sc3n2)CC(C(C)(C)C)CC4)n1 (stereo unspecified) : 17
2. Cc1ccc(CSc2nc(N)c3c4c(sc3n2)CC(C(C)(C)C)CC4)o1 (stereo unspecified) : 19.7
3. CC(C)(C)C1CCc2c(sc3nc(SCc4ccc(C(=O)O)cc4)nc(N)c23)C1 (stereo unspecified) : 95

Quick one: half-life of CC(C)(C)C1CCc2c(sc3nc(SCc4nccs4)nc(N)c23)C1 (stereo unspecified) ?
66.6

Would you mind telling me what half-life value was observed for COc1ccc([N+](=O)[O-])cc1CSc1nc(N)c2c3c(sc2n1)CC(C(C)(C)C)CC3 (stereo unspecified) ?
87.7

# input compound: CC(C)(C)C1CCc2c(sc3nc(SCc4cc([N+](=O)[O-])ccc4O)nc(N)c23)C1 (stereo unspecified) ; wanted: its half-life
58.2

Just for reference, ChEMBL document CHEMBL4138138 is where these values come from.
